Conditions: 298.15 K; 101 kPa
± gives the uncertainty stated by the source.
Items are presented alongside their recorded viscosity.
Measured property: viscosity

Mol smiles	Result
C=CC[n+]1ccn(C)c1.[Cl-]	254.5 ± 10 mPa·s
CCCCCCCCn1cc[n+](C)c1.[Cl][Fe-]([Cl])([Cl])[Cl]	133.2 ± 6.8 mPa·s
CCCC[N+](CCCC)(CCCC)CCCC.[OH-]	6.69 mPa·s
COC(=O)c1ccccc1C(=O)OC	13.8 ± 0.42 mPa·s

====

Test: xn = mol fraction of the nth substance listed
Settings: 298.15 K; 101.33 kPa; x1 = 0.601
Items are presented alongside their recorded viscosity.
Measured property: viscosity (mPa·s)

Compound	Measured number
CC(Cl)(Cl)Cl + COCC(C)O	0.9385
CC(Cl)(Cl)Cl + CCCOCCC	0.5733
CC(Cl)(Cl)Cl + CC(C)=O	0.5341
CC(Cl)(Cl)Cl + CCCCCCO	1.43

Data credit: the CheMixHub viscosity set
